molecular target: human alpha-thrombin (human, UniProt P00734;P00734 328-363;364-622); assay: inhibition of fluorogenic peptide cleavage; DAB moiety contributes; max inhibition >99%; not given in the material (Methods for BLI and fluorogenic assay are headings only)
PROPERTY: IC50 (nM)
Return type: number; implicit unit nM.

Exercise: GET /values?readout=IC50&item= AAAAAAAAGTCCGTGGTAGGGCAGGTTGGGGTGACT (structured_DNA, 5' C6-dabigatran) [HD22-7A-DAB]
Solution: 0.1

Reference source: paper PMC11087511
